procedure.details: COS7 lysate on small-molecule microarray, probe aHis, 635 nm (AID 1123);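 note: z-score combines 667nm fluorescence intensity with signal-to-noise per printed compound spot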
assay.context: COS7 cell lysate, fluorescence, higher = more signal
Property: composite z-score; scope: individual molecules
The response must contain the number and no unit.

The following molecules have reported results that may help.
Prompt: What value of composite z-score has been reported for the following molecule? C=CCC(OC(C)=O)[C@@H]1[C@@H](N(Cc2ccc(-c3cccc(C(F)(F)F)c3)o2)C(=O)c2cccc3ccccc23)c2cc(OCCCO)ccc2N1C(=O)Cc1ccc(OC)cc1 (stereo partly drawn)
Completion: 0.428

Prompt: // composite z-score lookup, key: "CCCCC(=O)N(CCN1CCOCC1)[C@@H]1CC(C(=O)NCCO)=C[C@H](Oc2c(I)cc(CO)cc2OC)[C@H]1O"
Completion: -0.463

Further cases:
Prompt: Sample "C=CCNC(=O)[C@H]1[C@@H]2C(=O)O[C@@H](c3ccccc3)[C@@H](c3ccccc3)N2[C@@H](c2ccc(O)cc2)[C@]12C(=O)N(C(=O)OCCOC)c1ccc(C#CCC(C(=O)OC)C(=O)OC)cc12" — what was its composite z-score?
Completion: 2.05

---

procedure.details: COS7 lysate on small-molecule microarray, probe aHis, 635 nm (AID 1123);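 note: z-score combines 667nm fluorescence intensity with signal-to-noise per printed compound spot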
assay.context: COS7 cell lysate, fluorescence, higher = more signal
property: composite z-score
Form rule: numeric answer, no unit written next to it.

See these solved cases before continuing.
Prompt: For "CC(C)CNC(=O)[C@@]1(C)c2ccccc2C(=O)N(Cc2cc(C(F)(F)F)cc(C(F)(F)F)c2)[C@H]1c1ccc(CO)cc1" , what is its reported composite z-score?
Completion: 0.79

Prompt: Look up composite z-score for this compound: "C=CC[C@H](OC(=O)Nc1ccc(SC)cc1)c1ccc(OCCO)cc1"
Completion: -0.365

Prompt: Endpoint output: composite z-score of O=C1C2C=CC(C(O)c3ccco3)N(Nc3ccccc3)C2C(=O)N1c1ccccc1 (centres undefined) . Value?
Completion: 0.467

***
Prompt: State the recorded composite z-score for this entry: "COC(=O)[C@@]1(Cc2ccccc2)[C@H]2c3cc(C(=O)N4CCCC4)n(CCSCCO)c3C[C@H]2CN1C(=O)c1ccccc1"
Completion: 3.57

Prompt: # composite z-score lookup, item "COCCCNC(=O)[C@@]1(c2ccc([N+](=O)[O-])cc2)CC(=O)N(CC23CC4CC(CC(C4)C2)C3)[C@@H]1c1ccc(CO)cc1I"
Completion: 1.61

Prompt: So what's the measured composite z-score for this one? "COc1ccc(C#Cc2ccc3c(c2)[C@]2(C(=O)N3)[C@H](C(=O)N3CCCCCCC3)[C@H]3C(=O)O[C@H](c4ccccc4)[C@H](c4ccccc4)N3[C@@H]2c2ccc(O)cc2)cc1"
Completion: 2.9

---

composite z-score by entry:
System: Sam68 (KHDRBS1)
procedure.details: Sam68 small-molecule binders, primary screen, biochemical, small-molecule microarray, 635 nm fluorescence (AID 1125);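 note: score merges 667 nm channel intensity with signal to noise over triplicate slides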
assay.context: small-molecule microarray binding, higher = more signal

Please review the entries below; each comes with its answer.
Prompt: What measured composite z-score goes with C=C(C)C1CCC(C(O)C2C=CC3C(=O)N(C)C(=O)C3N2Nc2cc(OC)c(OC)c(OC)c2)CC1 (stereo unspecified) ?
Completion: 1.29

Prompt: Field request: composite z-score | item: "CC(C)CNC(=O)[C@@]1(C)c2ccccc2C(=O)N(Cc2cc(C(F)(F)F)cc(C(F)(F)F)c2)[C@H]1c1ccc(CO)cc1"
Completion: 0.108

Prompt: Entry "COCCOC(=O)N1C(=O)[C@@]2(c3cc(C#CCCO)ccc31)[C@H](C(N)=O)[C@H]1C(=O)O[C@H](c3ccccc3)[C@H](c3ccccc3)N1[C@@H]2c1ccc(OCCO)cc1" has what composite z-score?
Completion: 1.29

---
Prompt: What composite z-score value was documented for this compound, "C=C[C@H](C)[C@H](OC(=O)Nc1ccc(OC)cc1)c1ccc(OCCO)cc1" ?
Completion: -0.321

Prompt: // query composite z-score value for entry "COCCOC(=O)N1C(=O)[C@@]2(c3cc(C#Cc4ccc(OC)cc4)ccc31)[C@H](C(=O)NC[C@H](O)c1ccccc1)[C@H]1C(=O)O[C@H](c3ccccc3)[C@H](c3ccccc3)N1[C@@H]2c1ccc(OCCO)cc1"
Completion: 1.3

Prompt: Entry "COc1ccc([Si](C)(C)[C@H]2[C@H](CCO)O[C@@]3(C(=O)N(Cc4ccc(N5C(=O)c6ccccc6Oc6ccccc65)cc4)c4ccccc43)[C@@H]2C)cc1" has what composite z-score?
Completion: -0.652

Prompt: Consider the compound shown here: "CN(C)C(=O)[C@@]1(Cc2ccccc2)COC(c2ccc(OCCCO)cc2)=N1" What is its recorded composite z-score?
Completion: 0.581

Prompt: GET /values?readout=composite z-score&item= COc1cc2c(cc1O)C(c1cccs1)N(Cc1sc3ccccc3c1Cl)CC2 (stereo unspecified)
Completion: 1.3

Prompt: // query composite z-score value for entry "[N-]=[N+]=Nc1ccccc1[C@@H]1OC(c2ccc(OCCCO)cc2)=N[C@]1(Cc1ccccc1)C(=O)NCc1ccccc1"
Completion: 1.3

Prompt: I would be grateful if you could share the reported composite z-score for "COc1ccc([Si](C)(C)[C@@H]2[C@@H](CC(=O)N3Cc4ccccc4C[C@H]3CO)O[C@]3(C(=O)N(Cc4ccc(N5CCC5=O)cc4)c4ccccc43)[C@H]2C)cc1" .
Completion: 1.24

Prompt: I am curious: what composite z-score value has been reported for "C[C@@]12COC[C@]13C=C(Br)[C@H](C2)[C@@]1(CO1)C3=O" ?
Completion: -1.91

Prompt: # query: composite z-score of entry "CCOC(=O)C1=CC[C@@H](c2ccccc2)N(S(=O)(=O)c2ccc(C)cc2)[C@H]1c1cccc(OC)c1"
Completion: 1.06

Prompt: Which composite z-score is reported for this compound? "COC(=O)[C@@]1(Cc2ccccc2CN=[N+]=[N-])N=C(c2ccc(OCCCO)cc2)O[C@H]1c1ccccc1"
Completion: 0.711

Prompt: # input compound: "COCC(=C=CC[C@@H](O)c1ccc(OCCO)cc1)CCO" ; wanted: its composite z-score
Completion: 0.847

Prompt: Which value of composite z-score has been reported for O=C1NC(=O)C2C1C=CC(C(O)c1ccccn1)N2Nc1ccc(Cl)cc1Cl (stereo unspecified) in the records?
Completion: 0.25

Prompt: Please look up its composite z-score: "COC(=O)[C@@]1(Cc2ccc(F)cc2)[C@H]2c3cc(C(=O)N(C)C)n(Cc4c(CO)[nH]cc(C)c4=O)c3C[C@H]2CN1C(=O)c1ccccc1"
Completion: -0.279

---

Each entry below carries its reported composite z-score.
Tested on: Sonic hedgehog protein (Shh)
procedure.details: small-molecule binders of Shh protein, primary screen, biochemical, small-molecule microarray, 635/667 nm fluorescence (AID 1151);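 note: Shh protein binding to compounds spotted on small-molecule microarray slides; score combines spot fluorescence intensity with signal-to-noise across triplicate slides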
assay.context: small-molecule microarray binding, 635 nm fluorescence; higher = more signal
Reply with just the number.

Worked cases, answers included:
Prompt: Fill blank: measured composite z-score of the compound CN1C(=O)C2C=CC(C(O)c3ccc(I)cc3)N(Nc3ccccc3)C2C1=O (stereo unspecified) is ____.
Completion: -0.0996

Prompt: Fill in: composite z-score of "COC(=O)C(CC#Cc1ccc2c(c1)[C@]1(C(=O)N2)[C@H](C(=O)Nc2nc3ccccc3s2)[C@H]2C(=O)O[C@H](c3ccccc3)[C@H](c3ccccc3)N2[C@@H]1c1ccc(OCCO)cc1)C(=O)OC" is ___
Completion: 1.53

Prompt: Which composite z-score is reported for this compound? CC1CC/C=C\[C@H]2OC34C=CCN(C(C)(C)C)C(=O)[C@H]3N(C(CO)C(C)C)C(=O)[C@@H]4C2C(=O)O1 (stereo partly specified)
Completion: 0.774

Prompt: Item "C=CCNC(=O)[C@H]1[C@@H]2C(=O)O[C@@H](c3ccccc3)[C@@H](c3ccccc3)N2[C@@H](c2ccc(OCCO)cc2)[C@]12C(=O)N(C(=O)OCCOC)c1ccc(C#Cc3ccc(OC)cc3)cc12" has what recorded composite z-score?
Completion: 1.72

Prompt: Requested read-out: composite z-score. Entry: "CCOC(=O)C[C@H]1[C@H](OC(=O)c2ccc(-c3ccccc3)cc2)[C@@H](NC(=O)CC(C)C)c2cc(OCCCO)ccc2N1C(=O)c1ccccc1"
Completion: 1.03

Query compound follows.
Prompt: What measured composite z-score goes with "COc1ccc([Si](C)(C)[C@@H]2[C@@H](CCn3cc([C@H](O)c4ccccc4)nn3)O[C@]3(C(=O)N(Cc4cccc(N5C(=O)c6cccc7cccc5c67)c4)c4ccccc43)[C@H]2C)cc1" ?
Completion: 0.454

---

procedure.details: small-molecule microarray binders of probe aCHRDL2, primary screen, biochemical, biotinylated probe, 635/667 nm fluorescence (AID 1100)
assay.context: higher = more signal
Overview of reported composite z-score across a group of compounds:
// no unit, no text: just the number

Examples with their reported composite z-score follow.
Prompt: Fill in: composite z-score of "C=C(COC)C(=O)CC[C@H](OC(C)=O)c1ccc(OCCO)cc1" is ___
Completion: -0.0486

Prompt: Give its composite z-score value. Item: O=C1C2C=CC(C(O)c3ccco3)N(Nc3ccccc3)C2C(=O)N1c1ccccc1 (stereo unspecified)
Completion: 0.878

Prompt: Item C=C(C)C1CCC(C(O)C2C=CC3C(=O)N(C)C(=O)C3N2Nc2cc(OC)c(OC)c(OC)c2)CC1 (stereo unspecified) has what recorded composite z-score?
Completion: 0.422

Next:
Prompt: # composite z-score lookup, item "CCCCC(=C=CC[C@H](O)c1ccc(OCCO)cc1)C[C@H](O)COCc1ccccc1"
Completion: -0.0323
